Test system: SNB-19 CNS
assayName: NCI tumour cell line growth inhibition, 48 h
Exercise: state measured TGI for each of the compounds provided.

CN(C)CCNC(=O)c1cccc2c(=O)c3ccccc3oc12; 97.7 µM
CC(=O)SCCC(NC(=S)Nc1ccccc1)P(=O)(Oc1ccccc1)Oc1ccccc1 (stereo not given); > 100 µM
O=C(Nc1cccc(O)c1)C(=O)C1C(=O)NC(=S)NC1=O; > 100 µM
O=C(/C=C/c1ccccc1)Nc1ncc(Cc2ccccc2Cl)s1; > 100 µM

Items follow; give TGI for each.
1. O=S(=O)(C1=CC(S(=O)(=O)c2ccccc2)CN(Cc2ccccc2)C1c1cccc2ccccc12)c1ccccc1 (stereo not given)
2. CC1(O)C(C)(O)C2(C)O[Te]3(OC12C)OC1(C)C(C)(O)C(C)(O)C1(C)O3 (stereo not given)
3. CC(=O)c1ccc(NC(=O)/C(CC(=O)c2sc(-c3cccnc3)nc2C)=N/NC(N)=O)cc1
4. COC1(OC)N=C(N)C2(C#N)C(c3ccccc3)NC3=C(CCC3)C12C#N (stereo not given)
5. CCCCCCCCn1ccc2cc(NC(=O)Cn3cc(CN4CCCCCC4)nn3)ccc21
6. CCN1C(=O)/C(=C/c2c(Cl)[nH]c3cc(C)c(OC)cc23)c2ccccc21

# output
> 69 µM
> 100 µM
> 100 µM
> 100 µM
3.46 µM
48.2 µM

---

Exercise: state measured TGI for each of the compounds provided.
Tested on: SK-MEL-5 melanoma
assayName: NCI tumour cell line growth inhibition, 48 h
Give bare numbers, in µM.

CS(=O)(=O)CCNCc1coc(-c2ccc3ncnc(Nc4ccc(OCc5ccccc5)cc4)c3c2)c1; 6.46

Now, please, on to the next compound.
# input Name the reported TGI value associated with the compound "Cc1ccc2c(ccc(/C=C/c3ccc(O)c4ncccc34)[n+]2C)c1"
# output 35.3

---

Exercise: state measured GI50 for each of the molecules provided.
Test system: SNB-75 CNS
assayName: NCI tumour cell line growth inhibition, 48 h

// worked examples, GI50 included
O=c1[nH]c2ccccc2cc1-c1nc2ccc(Cl)cc2[nH]1; 2.98 µM
C#CC1(O)C(COP(=O)(O)OCC(COP(=O)(O)OCC2OC(n3cc(F)c(=O)[nH]c3=O)CC2O)OCCCCCCCCCCCCCCCCCC)OC(n2ccc(N)nc2=O)C1O (centres undefined); 0.713 µM
N/N=C\c1c2ccccc2c(=O)n2c1oc1ccccc12; 11.5 µM

Now, please, on to the next molecule.
# input Name the reported GI50 value associated with the molecule "CCOC(=O)[CH-]C(=O)C12CC3CC(CC(C3)C1)C2.CCOC(=O)[CH-]C(=O)C12CC3CC(CC(C3)C1)C2.CC[O-].CC[O-].[Ti+4]"
# output 36.9 µM

---

System: NCI-H460 lung
Answer with one of the outcomes active, inactive

Completed entries (count: 3):
CC(=O)OC1OC([C@H]2c3cccc(O)c3C(=O)c3c(O)cc(C)cc32)C(O)C(O)C1O (stereo not given in full); active
CCCC(C)c1ccc(OCCCCCCN2CCNCC2)cc1 (stereo not given); inactive
O=C(/C=C/c1ccccc1)Nc1ncc(Cc2ccccc2Cl)s1; active

# input Would you mind telling me which call this test gave "N/N=C\c1c2ccccc2c(=O)n2c1oc1ccccc12" ?
# output inactive

# input Would you mind telling me which call this test gave COc1ccc2c(c1)NC1=C(C(=O)OC1)C2c1cc(OC)c(OC)c(OC)c1 (stereo not given) ?
# output active

# input Would you mind telling me which call this test gave "O=C(O)c1ccc(CN2CCC(CN[C@@H]3C[C@H]3c3ccccc3)CC2)cc1" ?
# output inactive

# input Would you mind telling me which call this test gave "COc1ccc2c(c1)C(=O)/C(=C/c1cccc(OCC(=O)c3ccccc3)c1)O2" ?
# output inactive

# input Would you mind telling me which call this test gave "CCOC(=O)Nc1cc2c(c(N)n1)N=C(c1ccc(OC)cc1)CN2" ?
# output active

# input Would you mind telling me which call this test gave NC(CSC(c1ccccc1)(c1ccccc1)c1ccccc1)C(=O)NCC(=O)O (stereo not given) ?
# output inactive

# input Would you mind telling me which call this test gave "CC/C=C\C[C@H]1CC=C2C(=O)C=C[C@@H]2CC=CCCCC(=O)O[C@@H](CCCCC)CC=C2C(=O)C=C[C@@H]2CC=CCCCC(=O)O[C@@H](CCCCC)CC=C2C(=O)C=C[C@@H]2CC=CCCCC(=O)O[C@@H](CCCCC)CC=C2C(=O)C=C[C@@H]2CC=CCCCC(=O)O1" ?
# output inactive
